Source of measurements: patent US11530229B2

- TARGET_ENTITY: Cbl-b (Homo sapiens (Human))
- Sequence (Q13191 36-427): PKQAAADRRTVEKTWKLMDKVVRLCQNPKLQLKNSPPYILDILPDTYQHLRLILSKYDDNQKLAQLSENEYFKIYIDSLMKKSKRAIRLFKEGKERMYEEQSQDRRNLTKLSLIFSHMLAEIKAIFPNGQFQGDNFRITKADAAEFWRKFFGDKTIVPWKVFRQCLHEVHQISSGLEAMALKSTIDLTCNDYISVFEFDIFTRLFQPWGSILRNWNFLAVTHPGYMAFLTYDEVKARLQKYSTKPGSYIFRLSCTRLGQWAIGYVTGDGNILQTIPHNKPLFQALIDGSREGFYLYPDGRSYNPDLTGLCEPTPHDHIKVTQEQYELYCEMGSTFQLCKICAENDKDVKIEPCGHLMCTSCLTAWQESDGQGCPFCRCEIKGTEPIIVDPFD
- RUN_DESCRIPTION: Cbl-b displacement assay (Cbl-b inhibition assay), Biological Example 1
- Assay type: binding
- RUN_PARAMETERS: read-out: IC50 values in the Cbl-b inhibition assay of Biological Example 1
pIC50: −log10 of the molar value.
Exercise: state measured pIC50 for each of the compounds provided.

For the compound Cn1cnnc1C[C@]1(c2cccc(N3Cc4c(cc(CNC5COC(C)(C)C5)cc4C(F)(F)F)C3=O)c2)C[C@H](C#N)C1 (stereo partly drawn) , give its reported pIC50. 8.30 to 8.70

Please supply the value of reported pIC50 for the item Cn1cnnc1C[C@]1(c2cccc(N3Cc4c(cccc4C(F)(F)F)C3=O)c2)C[C@H](C#N)C1 ≤ 7.70

Answer with the recorded pIC50 for the compound listed here: C[C@@H]1CN(Cc2cc3c(c(C(F)(F)F)c2)CN(c2cccc([C@]4(Cc5nncn5C)C[C@H](CC#N)C4)c2)C3=O)CCC1(F)F 7.70 to 8.30

Retrieve pIC50 measured for CCC1CN(Cc2cc3c(c(C(F)(F)F)c2)CN(c2cccc([C@]4(Cc5nncn5C)C[C@@H](C#N)C4)c2)C3=O)CCCO1 (stereo partly drawn) and print it. 8.30 to 8.70

Output measured pIC50 for this item: Cn1cnnc1C[C@]1(c2cccc(N3Cc4c(cc(CN5CCOCC(CO)C5)cc4C(F)(F)F)C3=O)c2)C[C@H](C#N)C1 (stereo partly drawn) 8.70 to 9.00

Return pIC50 for the following compound: Cn1cnnc1C[C@]1(c2cccc(N3Cc4c(cc(CN5CCCCC(F)(F)C5)cc4C(F)(F)F)C3=O)c2)C[C@H](C#N)C1 8.30 to 8.70

For the compound Cn1cnnc1C[C@]1(c2cccc(N3Cc4c(cc(CN5CCCCC(CO)C5)cc4C(F)(F)F)C3=O)c2)C[C@H](C#N)C1 (stereo partly drawn) , report pIC50. 8.70 to 9.00

Output pIC50 of Cc1cc(C(=O)Nc2cccc([C@]3(Cc4nncn4C)C[C@H](C#N)C3)c2)nc(C2CC2)n1 8.30 to 8.70

Please give measured pIC50 of the following entry: CC1CCCCN(Cc2cc3c(c(C(F)(F)F)c2)CN(c2cccc([C@]4(Cc5nncn5C)C[C@@H](C#N)C4)c2)C3=O)C1 (stereo partly drawn) > 9.00

---

- Test system: primary human total T-cells
- RUN_DESCRIPTION: T-cell activation, CD25 surface staining, Biological Example 2
- Type: cell-based
- RUN_PARAMETERS: anti-CD3 and anti-CD28 co-stimulation, 48 hours, 0.3 μM inhibitor, fold change over baseline
Kindly supply the reported fold induction at 0.3 µM values for the records listed here.

Provide only the value of recorded fold induction at 0.3 µM for C[C@H]1CCCN(Cc2cc(C(=O)Nc3cccc([C@]4(Cc5nncn5C)C[C@@H](C#N)C4)c3)nc(C3CC3)c2)C1 [Compound 55] 1.24 to 1.39

Name the recorded fold induction at 0.3 µM of the compound listed here: Cn1cnnc1C[C@]1(c2cccc(N3Cc4c(cc(CNC5COC(C)(C)C5)cc4C(F)(F)F)C3=O)c2)C[C@H](C#N)C1 (stereo partly shown) [Compound 24] 1.24 to 1.39

Retrieve fold induction at 0.3 µM measured for CC1CCCN(Cc2cc3c(c(C(F)(F)F)c2)CN(c2cccc([C@]4(Cc5nncn5C)C[C@@H](C#N)C4)c2)C3=O)CC1 (stereo partly shown) [Compound 13] and print it. 1.24 to 1.39

Tell me fold induction at 0.3 µM reported for CCC1CN(Cc2cc3c(c(C(F)(F)F)c2)CN(c2cccc([C@]4(Cc5nncn5C)C[C@@H](C#N)C4)c2)C3=O)CCCO1 (stereo partly shown) [Compound 5] > 1.39
